Test: Partition coefficient (logP butanol/buffer)
Type: physicochemical
Conditions: 1-butanol / 50 mM Tris-HCl, pH 7.4, room temperature
TEST READOUT: Log P (butanol/buffer)
Numbers only.

| COMPOUND | RECORDED NUMBER |
| --- | --- |
| CCOCCOCCOc1ccc(C[C@@H](C(=O)O)N2CCN(CC(=O)[O-])CCN(CC(=O)[O-])CCN(CC(=O)[O-])CC2)cc1.[Gd+3] | −1.61 |

Return reported Log P (butanol/buffer) values for all items listed beneath this line.
1. O=C([O-])CN1CCN(C(Cc2ccc(OCC(F)(F)C(F)F)cc2)C(=O)O)CCN(CC(=O)[O-])CCN([C@@H](CO)C(=O)[O-])CC1.[Gd+3] (mixture of isomers)
2. CCOCCOCCOCCOc1ccc(C[C@@H](C(=O)O)N2CCN(CC(=O)[O-])CCN(CC(=O)[O-])CCN(CC(=O)[O-])CC2)cc1.[Gd+3]
3. O=C([O-])CN1CCN(CC(=O)[O-])CCN([C@H](Cc2ccc(OCC(F)(F)F)cc2)C(=O)O)CCN(CC(=O)[O-])CC1.[Gd+3]
4. CCCOc1ccc(CCC(C(=O)O)N2CCN(CC(=O)[O-])CCN(CC(=O)[O-])CCN(CC(=O)[O-])CC2)cc1.[Gd+3] (stereo not shown)
5. CCOCCOc1ccc(CC(C(=O)O)N2CCN(CC(=O)[O-])CCN(C(CC)C(=O)[O-])CCN(CC(=O)[O-])CC2)cc1.[Gd+3] (single isomer, unassigned) [Example 7]
6. CCOc1ccc(C[C@@H](CN(CCN(CC(=O)[O-])CC(=O)[O-])CC(=O)[O-])N(CC(=O)[O-])CC(=O)[O-])cc1.[Gd+3].[H+].[H+]

Key:
1. −0.55
2. −1.68
3. −0.77
4. −0.71
5. −1.09
6. −2.12

---

Experiment: Partition coefficient (logP butanol/buffer)
Type: physicochemical
Settings: 1-butanol / 50 mM Tris-HCl, pH 7.4, room temperature
For each entry below, report its Log P (butanol/buffer) value.

# annotated cases, reported Log P (butanol/buffer) shown
| COMPOUND | Log P (butanol/buffer) |
| --- | --- |
| CCOCCOCCOc1ccc(CCC[C@H](C(=O)O)N2CCN([C@@H](CO)C(=O)[O-])CCN([C@@H](CO)C(=O)[O-])CCN([C@@H](CO)C(=O)[O-])CC2)cc1.[Gd+3] | −1.11 |
| CCCCOc1ccc(CCCC[C@@H](C(=O)O)N2CCN([C@@H](CO)C(=O)[O-])CCN([C@@H](CO)C(=O)[O-])CCN([C@@H](CO)C(=O)[O-])CC2)cc1.[Gd+3] | 0.26 |

Return reported Log P (butanol/buffer) values for all items listed beneath this line.
1. CCOCCOCCOc1ccc(CC(C(=O)[O-])N2CCN(CC(=O)[O-])CCN(C(CC)C(=O)O)CCN(CC(=O)[O-])CC2)cc1.[Gd+3] (stereo not drawn)
2. CCOCCOCCOc1ccc(CCC[C@@H](C(=O)O)N2CCN([C@@H](CO)C(=O)[O-])CCN([C@@H](CO)C(=O)[O-])CCN([C@@H](CO)C(=O)[O-])CC2)cc1.[Gd+3]
3. CCOCCOCCOc1ccc(CCC[C@@H](C(=O)O)N2CCN([C@H](CO)C(=O)[O-])CCN([C@H](CO)C(=O)[O-])CCN([C@H](CO)C(=O)[O-])CC2)cc1.[Gd+3]
4. O=C([O-])CN1CCN(CC(=O)[O-])CCN(C(Cc2ccc(OCC(F)(F)C(F)F)cc2)C(=O)O)CCN(CC(=O)[O-])CC1.[Gd+3] (stereo not drawn)

Key:
1. −1.19
2. −1.00
3. −1.11
4. −0.57
